Measured Ki by item
Target or system: T1, human plasma kallikrein (PKal) (human, UniProt P03952 20-638)
T1 construct: Active PKal is cleaved at the marked R/I site into two disulfide-linked chains; also called human Pkal; active PKal
T1 sequence (P03952 20-638 limits assumed): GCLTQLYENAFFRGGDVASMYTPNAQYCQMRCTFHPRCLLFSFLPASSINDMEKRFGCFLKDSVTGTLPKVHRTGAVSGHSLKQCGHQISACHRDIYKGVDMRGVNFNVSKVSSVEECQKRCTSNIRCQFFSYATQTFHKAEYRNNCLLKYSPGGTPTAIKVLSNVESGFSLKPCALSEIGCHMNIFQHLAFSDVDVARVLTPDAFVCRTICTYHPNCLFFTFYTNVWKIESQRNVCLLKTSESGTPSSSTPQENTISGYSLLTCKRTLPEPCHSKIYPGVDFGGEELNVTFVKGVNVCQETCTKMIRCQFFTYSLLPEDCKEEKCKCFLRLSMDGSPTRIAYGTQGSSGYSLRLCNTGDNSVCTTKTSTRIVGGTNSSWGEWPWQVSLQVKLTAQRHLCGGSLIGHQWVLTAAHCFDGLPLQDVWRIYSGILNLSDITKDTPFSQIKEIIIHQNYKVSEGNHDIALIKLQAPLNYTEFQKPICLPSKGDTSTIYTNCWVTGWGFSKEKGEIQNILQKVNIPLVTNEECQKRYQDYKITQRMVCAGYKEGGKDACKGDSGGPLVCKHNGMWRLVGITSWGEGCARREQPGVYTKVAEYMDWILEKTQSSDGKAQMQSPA
Protocol notes: Ki,app; Fab inhibition of PKal cleavage of a substrate peptide, Morrison fit
Give the number; nM is assumed, so skip it.

Solved cases below.
M0202-009 (Fab, V domains shown) VH: EVQLLESGGGLVQPGGSLRLSCAASGFTFSHYIMMWVRQAPGKGLEWVSGIYSSGGITVYADSVKGRFTISRDNSKNTLYLQMNSLRAEDTAVYYCAYRRIGVPRRDDFDIWGQGTMVTVSS VL: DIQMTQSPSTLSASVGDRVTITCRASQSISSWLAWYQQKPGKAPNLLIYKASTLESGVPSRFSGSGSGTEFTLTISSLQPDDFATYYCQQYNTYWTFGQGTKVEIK	0.06
M0201-A06 (Fab, V domains shown, HC CDR3 variant of M0162-A04, tested as Fab) VH: EVQLLESGGGLVQPGGSLRLSCAASGFTFSHYIMMWVRQAPGKGLEWVSGIYSSGGITVYADSVKGRFTISRDNSKNTLYLQMNSLRAEDTAVYYCAYRRTGIPRRDVFDIWGQGTMVTVSS VL: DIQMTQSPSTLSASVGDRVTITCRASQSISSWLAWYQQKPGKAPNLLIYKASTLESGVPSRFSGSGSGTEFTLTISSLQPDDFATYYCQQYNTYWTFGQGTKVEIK	3.8

Please look at the following binder next.
Notebook: M0201-A07 (Fab, V domains shown) VH: EVQLLESGGGLVQPGGSLRLSCAASGFTFSHYIMMWVRQAPGKGLEWVSGIYSSGGITVYADSVKGRFTISRDNSKNTLYLQMNSLRAEDTAVYYCAYRRTGVPRRDEFDIWGQGTMVTVSS VL: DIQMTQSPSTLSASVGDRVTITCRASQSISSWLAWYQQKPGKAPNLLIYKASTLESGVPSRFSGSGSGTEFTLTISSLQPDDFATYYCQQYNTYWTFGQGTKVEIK , Ki read as 0.1
